target: UniProt:P41143
Sequence (P41143 whole entry): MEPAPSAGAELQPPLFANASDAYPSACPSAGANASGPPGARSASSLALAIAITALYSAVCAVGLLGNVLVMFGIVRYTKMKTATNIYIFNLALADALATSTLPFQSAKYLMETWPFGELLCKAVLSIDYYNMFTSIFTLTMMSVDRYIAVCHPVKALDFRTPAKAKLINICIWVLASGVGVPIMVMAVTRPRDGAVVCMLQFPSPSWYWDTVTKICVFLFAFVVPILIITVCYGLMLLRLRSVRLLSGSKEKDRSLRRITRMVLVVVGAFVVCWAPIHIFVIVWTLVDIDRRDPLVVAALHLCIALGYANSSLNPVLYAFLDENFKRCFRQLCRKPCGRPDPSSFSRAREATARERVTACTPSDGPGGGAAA
pIC50: −log10 of the molar value.
test-readout: pIC50

structure: C[C@@]12CCCCC[C@@H](Cc3ccc(O)cc31)[C@@H]2NCc1ccccc1.Cl
test-readout: pIC50
recorded-value: > 8.00

====

biological target: μ opioid receptor (μ阿片类受体) (Homo sapiens); test: Radioligand competitive binding, μ opioid receptor (Example 12)
Sequence (P35372 whole entry): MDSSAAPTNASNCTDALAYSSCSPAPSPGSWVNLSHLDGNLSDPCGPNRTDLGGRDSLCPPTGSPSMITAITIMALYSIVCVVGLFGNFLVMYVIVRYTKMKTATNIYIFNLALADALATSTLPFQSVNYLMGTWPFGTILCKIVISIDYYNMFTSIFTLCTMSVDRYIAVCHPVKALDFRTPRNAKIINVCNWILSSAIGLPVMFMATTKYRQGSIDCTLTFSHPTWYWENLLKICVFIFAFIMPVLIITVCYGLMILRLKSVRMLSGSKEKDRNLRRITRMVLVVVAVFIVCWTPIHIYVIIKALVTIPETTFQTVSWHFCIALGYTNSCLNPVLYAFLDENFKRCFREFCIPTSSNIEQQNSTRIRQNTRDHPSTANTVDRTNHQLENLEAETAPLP
pIC50: −log10 of the molar value.
test-readout: pIC50

structure: C[C@@]12CCCCC[C@@H](Cc3ccc(O)cc31)[C@@H]2NCc1ccccc1.Cl
recorded-value: > 8.00
